These measurements were taken from the NIST ThermoML archive (doi:10.1021/acs.jced.6b00178).

The entries below come with measured mass density values attached.
conditions: 363.15 K; 100 kPa; Liquid; Vibrating tube method
Dear colleague, please return just the value in kg/m3, with no unit written.

// solved cases for mass density follow
> print(dat)
                                   molecule  recordedendpoint  recordedvalue
1  CC(=O)[O-].CCCCn1cc[n+](C)c1 [1-butyl-3-methylimidazolium acetate]      mass density         1013.9
2  CCCCn1cc[n+](C)c1.N#C[S-] [1-butyl-3-methylimidazolium thiocyanate]      mass density         1033.1
3  CCCCn1cc[n+](C)c1.N#CN=C=[N-] [1-butyl-3-methylimidazolium dicyanamide]      mass density         1020.3

Please give the measured mass density for this molecule: CCCCn1cc[n+](C)c1.COP(=O)([O-])OC [1-butyl-3-methyl-1H-imidazolium dimethylphosphate]
1115.7

Give the measured mass density of CCCCn1cc[n+](C)c1.F[B-](F)(F)F [1-butyl-3-methylimidazolium tetrafluoroborate] .
1156.8

====

assay: xn = mol fraction of the nth substance listed; settings: 288.15 K; 100 kPa; Liquid; Vibrating tube method; x2 = 0.25
recordedEndpoint: mass density (kg/m3)
Entry rule: numbers only, all in kg/m3.

The following compounds have reported results that may help.
compound	mass density / kg/m3
CCCCn1cc[n+](C)c1.O=S(=O)([O-])C(F)(F)F [1-butyl-3-methylimidazolium trifluoromethanesulfonate] + CCCC[n+]1ccn(C)c1.O=S(=O)([N-]S(=O)(=O)C(F)(F)F)C(F)(F)F	1348.3
CC(=O)[O-].CCCCn1cc[n+](C)c1 [1-butyl-3-methylimidazolium acetate] + CCCC[n+]1ccn(C)c1.O=S(=O)([N-]S(=O)(=O)C(F)(F)F)C(F)(F)F	1189.4
CCCCn1cc[n+](C)c1.F[P-](F)(F)(F)(F)F [1-butyl-3-methylimidazolium hexafluorophosphate] + CCCC[n+]1ccn(C)c1.O=S(=O)([N-]S(=O)(=O)C(F)(F)F)C(F)(F)F	1398.3
CCCCn1cc[n+](C)c1.COP(=O)([O-])OC [1-butyl-3-methyl-1H-imidazolium dimethylphosphate] + CCCC[n+]1ccn(C)c1.O=S(=O)([N-]S(=O)(=O)C(F)(F)F)C(F)(F)F	1247

API: the following record is the query input.
Requested field: mass density. Item: CCCCn1cc[n+](C)c1.N#C[S-] [1-butyl-3-methylimidazolium thiocyanate] + CCCC[n+]1ccn(C)c1.O=S(=O)([N-]S(=O)(=O)C(F)(F)F)C(F)(F)F
1202.6

====

conditions: 308.15 K; 100 kPa; Liquid; Vibrating tube method
recordedEndpoint: mass density (kg/m3)
// return numeric value only (unit: kg/m3, not printed)

Examples with their reported mass density follow.
> print(dat)
                                   compound  outputunit  recordedvalue
1  CCCCn1cc[n+](C)c1.COP(=O)([O-])OC [1-butyl-3-methyl-1H-imidazolium dimethylphosphate]       kg/m3         1150.9
2  CCCCn1cc[n+](C)c1.F[B-](F)(F)F [1-butyl-3-methylimidazolium tetrafluoroborate]       kg/m3         1194.5
3  CC(=O)[O-].CCCCn1cc[n+](C)c1 [1-butyl-3-methylimidazolium acetate]       kg/m3         1046.6
4  CCCC[n+]1ccn(C)c1.O=S(=O)([N-]S(=O)(=O)C(F)(F)F)C(F)(F)F       kg/m3         1427.6
5  CCCCn1cc[n+](C)c1.N#C[S-] [1-butyl-3-methylimidazolium thiocyanate]       kg/m3         1064.2

Now turn to the next compound.
Reported mass density for CCCCn1cc[n+](C)c1.N#CN=C=[N-] [1-butyl-3-methylimidazolium dicyanamide] : what is it?
1053.8
